Listed next: entries and their corresponding protein stability index.
B1: RPAIN (parent)
chain: ISEYEKSLQFDEKCLSIMLAEWEA

# Variants of: B1
# MEASUREMENT_PROTOCOL: protein stability index of a GFP-peptide fusion (GPS, HEK-293T) (PSI 1-6); higher = more stable;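 note: lentivirally expressed fusions sorted by FACS into six bins by GFP to DsRed ratio, PSI derived from sequencing read proportions per bin multiplied by bin number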
# TEST_CONDITIONS: c terminus: a fixed tail appended
API doc: respond with a numeric literal and nothing else, no unit.

// known answers, use as guide
* ISEYEKSLQFDEKCLSIMLAEWLA | 1.83
* ISEYEKSLQFDSKCLSIMLAEWEA | 1.92
* ISRYEKSLQFDEKCLSIMLAEWEA | 2.4
* ISEYEKSLQFDEKCLSIMLAEPEA | 3.93
* ISEYEKSLQFDEKCLSIMLAEWEY | 1.25
* ISEYEKSLQNDEKCLSIMLAEWEA | 2.9
* ISEYEWSLQFDEKCLSIMLAEWEA | 1.79
* ISEYEKSLQFDETCLSIMLAEWEA | 1.44
* ISEYEKSLHFDEKCLSIMLAEWEA | 1.85
* ISYYEKSLQFDEKCLSIMLAEWEA | 3.23

Req: Any idea what its protein stability index is? The variant is "ISEYEKSLQFDEKVLSIMLAEWEA"
Resp: 1.75

Req: Field entry: "ISEYEKSLQIDEKCLSIMLAEWEA"
Resp: 2.93

Req: Field entry: "ISEYEKSLYFDEKCLSIMLAEWEA"
Resp: 1.58

Req: Field entry: "LSEYEKSLQFDEKCLSIMLAEWEA"
Resp: 1.64

Req: Field entry: "ISEYEKSLQFDEKCLSIMLAEWEH"
Resp: 2.49

Req: Field entry: "ASEYEKSLQFDEKCLSIMLAEWEA"
Resp: 2.29

Req: Field entry: "ISEYEKSLQFDEKCCSIMLAEWEA"
Resp: 2.66

Req: Field entry: "ISEYEKSLQMDEKCLSIMLAEWEA"
Resp: 2.45

Req: Field entry: "ISEYEKSLQFDEKCLSIMLNEWEA"
Resp: 1.44

Req: Field entry: "ISEYEKQLQFDEKCLSIMLAEWEA"
Resp: 2.13

Req: Field entry: "ISEYEKSLQWDEKCLSIMLAEWEA"
Resp: 2.88

Req: Field entry: "ISEYEKSLDFDEKCLSIMLAEWEA"
Resp: 2.02

Req: Field entry: "ISEYEKSLQFDEKCLSIMLAEREA"
Resp: 3.37
